src = the supplement of paper PMC10126150

# Test system: ATP;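 further: ATP exposure 15 min at 22 °C before imaging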
# experimental details: switch fluorescence ratio, 500 uM ATP over buffer (Cy3 cluster intensity, sum of 5 cycles each) (fold (ratio)); higher = stronger signal-on switching upon ATP binding; sequences stand for … in TCGTCGGCAGCGTCAGATGTGTATAAGAGACAGTTTTTTTTTTTTTTTTTTTTTTTTT…TC
# stated conditions: aptamer strand: ATP DNA aptamer (quencher-CACCTGGGGGAGTATTGCGGAGGAAGG + anchor), 100 nM annealed; ATP concentration: 500 uM
Hi there, I'd appreciate the recorded switch fluorescence ratio for every entry that follows.
I only need the number, thanks.

For this sequence ( `TAGGTCGGGT` ), measured switch fluorescence ratio is 0.984

For this sequence ( `GGGCTGGTTC` ), measured switch fluorescence ratio is 1.03

For this sequence ( `AAGTCGGGTG` ), measured switch fluorescence ratio is 1.08

For this sequence ( `CGGAGAGCTG` ), measured switch fluorescence ratio is 1.04

For this sequence ( `TTTGTTATGC` ), measured switch fluorescence ratio is 1.03

For this sequence ( `ACCTCCCGTT` ), measured switch fluorescence ratio is 1.12

For this sequence ( `AGGATCGAGG` ), measured switch fluorescence ratio is 1.02

For this sequence ( `CGGGCTTTAT` ), measured switch fluorescence ratio is 1.01

For this sequence ( `GGTAGGTGTC` ), measured switch fluorescence ratio is 0.985

For this sequence ( `AATTGTTGGG` ), measured switch fluorescence ratio is 1.01

* * *

# Tested on: ATP;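 further: ATP exposure 15 min at 22 °C before imaging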
# experimental details: switch fluorescence ratio, 500 uM ATP over buffer (Cy3 cluster intensity, sum of 5 cycles each) (fold (ratio)); higher = stronger signal-on switching upon ATP binding; sequences stand for … in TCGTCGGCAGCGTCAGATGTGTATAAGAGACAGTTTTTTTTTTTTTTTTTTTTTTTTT…TC
# stated conditions: aptamer strand: ATP DNA aptamer (quencher-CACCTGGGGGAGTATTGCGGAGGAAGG + anchor), 100 nM annealed; ATP concentration: 500 uM
Would you please tag the item 1 when its switch fluorescence ratio is 1 or above, and 0 when it is below?

switch fluorescence ratio >= 1 for `AAGCTTTCGT` ?
1

switch fluorescence ratio >= 1 for `TTGGGTCTCC` ?
1

switch fluorescence ratio >= 1 for `AACGTAGCGG` ?
1

switch fluorescence ratio >= 1 for `TGGACGTGAT` ?
1

switch fluorescence ratio >= 1 for `ATGAGGCACG` ?
1

switch fluorescence ratio >= 1 for `CGATCGGTTG` ?
0

* * *

# Tested on: ATP;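 further: ATP exposure 15 min at 22 °C before imaging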
# experimental details: switch fluorescence ratio, 500 uM ATP over buffer (Cy3 cluster intensity, sum of 5 cycles each) (fold (ratio)); higher = stronger signal-on switching upon ATP binding; sequences stand for … in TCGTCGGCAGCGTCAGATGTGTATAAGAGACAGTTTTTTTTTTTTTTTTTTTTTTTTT…TC
# stated conditions: aptamer strand: ATP DNA aptamer (quencher-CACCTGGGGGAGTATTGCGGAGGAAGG + anchor), 100 nM annealed; ATP concentration: 500 uM
Hi there, I'd appreciate the recorded switch fluorescence ratio for every entry that follows.
I only need the number, thanks.

For this sequence ( `GGGGGGATTT` ), measured switch fluorescence ratio is 1.02

For this sequence ( `GGGGGATGGT` ), measured switch fluorescence ratio is 0.978

For this sequence ( `GAGAGATCG` ), measured switch fluorescence ratio is 0.982

For this sequence ( `GCTAACTAGG` ), measured switch fluorescence ratio is 1.04

For this sequence ( `AGGTTGCCGG` ), measured switch fluorescence ratio is 1.04

For this sequence ( `GAACCTTCGT` ), measured switch fluorescence ratio is 1.05

For this sequence ( `TAACCAATTT` ), measured switch fluorescence ratio is 1.01

For this sequence ( `TTTTTGAAAG` ), measured switch fluorescence ratio is 0.996

For this sequence ( `TTAGGGTAGG` ), measured switch fluorescence ratio is 0.97

For this sequence ( `TATTTTCCTG` ), measured switch fluorescence ratio is 1.15

For this sequence ( `GCTCGAAGTT` ), measured switch fluorescence ratio is 0.978

For this sequence ( `GTTTGGGTGT` ), measured switch fluorescence ratio is 1

For this sequence ( `CATGACGAAT` ), measured switch fluorescence ratio is 1.03

For this sequence ( `CGTAGCTTTG` ), measured switch fluorescence ratio is 1.09

For this sequence ( `TCAGCGGGGG` ), measured switch fluorescence ratio is 1.11

For this sequence ( `TTCGGTTGGG` ), measured switch fluorescence ratio is 0.986

For this sequence ( `GGTTATAAGT` ), measured switch fluorescence ratio is 0.975

For this sequence ( `GATTTTTTTG` ), measured switch fluorescence ratio is 0.985

For this sequence ( `CCGGGTCAGC` ), measured switch fluorescence ratio is 1.21

For this sequence ( `GGTCATAGTG` ), measured switch fluorescence ratio is 1.01

For this sequence ( `AAGGTCGTAT` ), measured switch fluorescence ratio is 0.992
